Origin of values: patent US20230233569A1

target: KRAS WT (Homo sapiens, UniProt P01116+P62937); assay: Ras-Raf disruption / FRET / MOA assay (BRAF RBD); assay type: biochemical; settings: KRAS WT FRET data IC50, Ras-Raf disruption, with Cyclophilin A
Sequence (P01116 1-169 isoform P01116-2 limits assumed): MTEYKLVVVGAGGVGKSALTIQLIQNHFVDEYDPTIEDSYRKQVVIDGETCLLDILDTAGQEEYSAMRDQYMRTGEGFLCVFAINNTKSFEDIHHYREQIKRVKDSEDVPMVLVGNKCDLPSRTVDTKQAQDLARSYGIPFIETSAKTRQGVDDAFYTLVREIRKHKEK
Sequence (P62937 whole entry): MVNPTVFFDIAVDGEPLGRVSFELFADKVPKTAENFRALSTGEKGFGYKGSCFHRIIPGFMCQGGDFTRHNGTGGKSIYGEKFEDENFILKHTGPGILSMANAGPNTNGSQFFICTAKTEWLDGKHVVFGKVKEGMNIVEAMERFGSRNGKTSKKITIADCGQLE
Reported IC50 is given for each of the following molecules.

INSERT INTO measurements (molecule, recorded_metric, recorded_value) VALUES
  ('CCn1c(-c2cccnc2[C@H](C)OC)c2c3cc(ccc31)-c1cc(O)cc(c1)C[C@H](NC(=O)[C@H](C(C)C)N(C)C(=O)CN(C)C(=O)[C@H]1CN1CCOC)C(=O)N1CCC[C@H](N1)C(=O)OCC(C)(C)C2 (stereo partly shown) [Example 159]', 'IC50', '10 to 100 nM'),
  ('CCn1c(-c2cccnc2[C@H](C)OC)c2c3cc(ccc31)-c1cc(O)cc(c1)C[C@H](NC(=O)[C@H](C1CCCC1)N(C)C(=O)CN(C)C(=O)[C@@H]1N[C@@H]1C1CC1)C(=O)N1CCC[C@H](N1)C(=O)OCC(C)(C)C2 [Example 170]', 'IC50', '10 to 100 nM'),
  ('CCn1c(-c2cccnc2[C@H](C)OC)c2c3cc(ccc31)-c1cc(O)cc(c1)C[C@H](NC(=O)[C@H](C(C)C)N(C)C(=O)CN(C)C(=O)[C@H]1CN1Cc1ccccc1F)C(=O)N1CCC[C@H](N1)C(=O)OCC(C)(C)C2 (stereo partly shown) [Example 155]', 'IC50', '10 to 100 nM'),
  ('CCn1c(-c2cccnc2[C@H](C)OC)c2c3cc(ccc31)-c1csc(n1)C[C@H](NC(=O)[C@H](C1CCCC1)N(C)C(=O)CN(C)C(=O)[C@H]1CN1)C(=O)N1CCC[C@H](N1)C(=O)OCC(C)(C)C2 [Example 132]', 'IC50', '1000 to 10000 nM'),
  ('CCn1c(-c2cccnc2[C@H](C)OC)c2c3cc(ccc31)-c1cc(O)cc(c1)C[C@H](NC(=O)[C@H](C(C)C)N(C)C(=O)CN(C)C(=O)[C@H]1CN1CCCC#N)C(=O)N1CCC[C@H](N1)C(=O)OCC(C)(C)C2 (stereo partly shown) [Example 273]', 'IC50', '10 to 100 nM');

Look up IC50 for this molecule: CCn1c(-c2cccnc2[C@H](C)OC)c2c3cc(ccc31)-c1cc(O)cc(c1)C[C@H](NC(=O)[C@H](C1CCCC1)N(C)C(=O)CN(C)C(=O)[C@@H]1N[C@@H]1C1(OC)CC1)C(=O)N1CCC[C@H](N1)C(=O)OCC(C)(C)C2 (single isomer, unassigned) [Example 323]
10 to 100 nM

Look up IC50 for this molecule: CCn1c(-c2cccnc2[C@H](C)OC)c2c3cc(ccc31)-c1cc(O)cc(c1)C[C@H](NC(=O)[C@H](C1CCCC1)N(C)C(=O)[C@@H](C)N(C)C(=O)[C@@H]1N[C@@H]1C1CC1)C(=O)N1CCC[C@H](N1)C(=O)OCC(C)(C)C2 [Example 327]
1000 to 10000 nM

Look up IC50 for this molecule: CCn1c(-c2cccnc2[C@H](C)OC)c2c3cc(ccc31)-c1cc(O)cc(c1)C[C@H](NC(=O)[C@H](C(C)C)N(C)C(=O)CN(C)C(=O)[C@H]1N[C@H]1C(C)C)C(=O)N1CCC[C@H](N1)C(=O)OCC(C)(C)C2 [Example 265]
10 to 100 nM

Look up IC50 for this molecule: CCn1c(-c2cccnc2[C@H](C)OC)c2c3cc(ccc31)-c1cc(O)cc(c1)C[C@H](NC(=O)[C@H](C1CCCC1)N(C)C(=O)CN(C)C(=O)[C@H]1CN1)C(=O)N1CCC[C@H](N1)C(=O)OCC(C)(C)C2 [Example 95]
10 to 100 nM

Look up IC50 for this molecule: CCn1c(-c2cccnc2[C@H](C)OC)c2c3cc(ccc31)-c1cc(O)cc(c1)C[C@H](NC(=O)[C@H](C(C)C)N(C)C(=O)CN(C)C(=O)[C@@H]1CN1CCCOC(C)=O)C(=O)N1CCC[C@H](N1)C(=O)OCC(C)(C)C2 (stereo partly shown) [Example 267]
10 to 100 nM
